// data source = patent US20240368120A1

Collected pEC50 values appear next to each entry.
# system: human GLP-1R receptor (Homo sapiens, UniProt P43220)
# Sequence (P43220 24-463): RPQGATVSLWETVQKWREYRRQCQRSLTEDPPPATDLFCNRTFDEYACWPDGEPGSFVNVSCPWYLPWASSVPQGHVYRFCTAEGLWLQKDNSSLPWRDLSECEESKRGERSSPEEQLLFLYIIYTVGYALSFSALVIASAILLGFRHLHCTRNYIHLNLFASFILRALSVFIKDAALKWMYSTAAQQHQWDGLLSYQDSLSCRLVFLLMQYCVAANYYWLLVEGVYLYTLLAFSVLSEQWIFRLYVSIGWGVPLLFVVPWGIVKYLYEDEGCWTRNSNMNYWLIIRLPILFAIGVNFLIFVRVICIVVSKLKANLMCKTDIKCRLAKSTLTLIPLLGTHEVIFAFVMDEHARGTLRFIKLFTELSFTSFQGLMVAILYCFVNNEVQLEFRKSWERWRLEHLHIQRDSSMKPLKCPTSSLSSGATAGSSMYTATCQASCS
# assay.name: GLP-1R low expression cell assay (cAMP TR-FRET, CHO-K1_hGLP-1Rlow_clone10 cells)
# settings: cAMP TR-FRET, 30 min at 25° C.
pEC50: −log10 of the molar value.

Here's what some known entries look like.
In [3]: df
Out[3]:
                                        smi  measurement_label           val
0  Cn1c(CN2CCC(c3cccc(OCc4ccc(Cl)cc4F)n3)CC2)nc2c(OC(F)F)cc(-c3nnc(C(F)(F)F)[nH]3)cc21              pEC50        < 6.00
1  COc1cc(C(=O)O)cc2c1nc(Cc1ccc(-c3cccc(OCc4ccc(C#N)cc4F)n3)cc1F)n2C              pEC50        > 8.00
2  COc1cc(C(=O)O)nc2c1nc(CN1CCC(c3cccc(OCc4ccc(C#N)cc4F)n3)CC1)n2C              pEC50  7.00 to 8.00

stdin: Look up and report measured pEC50 (human GLP-1R receptor (Homo sapiens, UniProt P43220)) for the following compound: COc1cc(C(=O)O)c(F)c2c1nc(CN1CCC(c3cccc(OCc4ccc(Cl)cc4F)n3)CC1)n2C
stdout: > 8.00

* * *

Collected pEC50 values appear next to each entry.
# system: human GLP-1R receptor (Homo sapiens)
# assay.name: GLP-1R low expression cell assay (cAMP TR-FRET, CHO-K1_hGLP-1Rlow_clone10 cells)
# settings: cAMP TR-FRET, 30 min at 25° C.
pEC50: −log10 of the molar value.

Here's what some known entries look like.
                                        smi                                system           val
0  CCOc1cc(C(=O)O)cc2c1nc(CN1CCC(Oc3cccc(COc4ccc(C#N)cc4F)n3)CC1)n2C  human GLP-1R receptor (Homo sapiens)        > 8.00
1  CCn1c(CN2CCC(c3cccc4c3O[C@@](C)(c3ccc(Cl)cn3)O4)CC2)nc2c(OC(C)C)cc(C(=O)O)cc21  human GLP-1R receptor (Homo sapiens)  7.00 to 8.00
2  COc1c(C(=O)O)ccc2c1nc(CN1CCC(c3cccc(OCc4ccc(Cl)cc4F)n3)CC1)n2C  human GLP-1R receptor (Homo sapiens)        < 6.00
3  Cn1c(CN2CCC(c3cccc(OCc4ccc(Cl)cc4F)n3)CC2)nc2c(OC(F)F)cc(C(=O)O)nc21  human GLP-1R receptor (Homo sapiens)  7.00 to 8.00
4  Cn1c(CN2CCC(c3cccc(OCc4ccc(C#N)cc4F)n3)CC2)nc2c(C(C)(C)O)cc(C(=O)O)cc21  human GLP-1R receptor (Homo sapiens)        < 6.00

stdin: Look up and report measured pEC50 (human GLP-1R receptor (Homo sapiens)) for the following compound: CCOc1cc(C(=O)O)cc2c1nc(CN1CCC(c3cccc4c3O[C@H](c3ccc(Cl)cc3F)CO4)CC1)n2C
stdout: 7.00 to 8.00

stdin: Look up and report measured pEC50 (human GLP-1R receptor (Homo sapiens)) for the following compound: COc1cc(C(=O)O)cc2c1nc(CN1CC[C@@H](c3cccc4c3O[C@@](C)(c3ccc(Cl)cn3)O4)[C@@H]3C[C@@H]31)n2C[C@@H]1CCO1
stdout: > 8.00
